biological target: PRL-1 (Homo sapiens); assay: in vitro PRL-1 phosphatase enzymatic assay (tyrosine phosphatase / DiFMUP assay); format: biochemical; design: concentration or dose not given beside the values; conditions: UA Natural Products Library hits
Sequence (Q93096 whole entry): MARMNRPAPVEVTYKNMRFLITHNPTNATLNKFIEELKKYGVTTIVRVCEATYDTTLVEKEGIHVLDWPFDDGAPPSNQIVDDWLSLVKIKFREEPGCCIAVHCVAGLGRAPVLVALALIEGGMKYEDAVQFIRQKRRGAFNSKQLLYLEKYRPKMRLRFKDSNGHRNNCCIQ
measure: INHIBITION % (PRL-1 inhibitory activity)

C=Cc1ccc2c3c(ccc(C=O)c13)C(Cl)=CC2=O; 50%
C=CCn1c(SCC(=O)O)nnc1-c1ccc([N+](=O)[O-])cc1; 42%

I have 3 compounds here; please give me INHIBITION % (PRL-1 inhibitory activity) for each one.
1. C=[N+](OC)c1nn(CC(=O)Nc2sc(C)c(C)c2C(N)=O)c(C)c1Br
2. NC(=O)c1cc2ccc(O)cc2oc1=O
3. N#CC1=C(N)NC(=S)C(C(N)=O)C1c1ccccc1F (centres unmarked)

1: 70%; 2: 62%; 3: 76%
